Each entry below carries its recorded CC50 at 120 h.
ASSAY_INFO: Cytotoxicity against human MT4 cells assessed as reduction in cell viability measured after 5 days by MTS/PES assay
Format: cell-based
SETTINGS: time 5 day

O=C(CCC(CCC(=O)NC(Cc1c[nH]c2c(-c3ccc(C(=O)O)cc3)cccc12)C(=O)O)(CCC(=O)NC(Cc1c[nH]c2c(-c3ccc(C(=O)O)cc3)cccc12)C(=O)O)[N+](=O)[O-])NC(Cc1c[nH]c2c(-c3ccc(C(=O)O)cc3)cccc12)C(=O)O (configuration not stated) | > 100 µM

Query molecule follows.
Exercise: Given O=C(CCC(CCC(=O)NC(Cc1c(-c2cc(C(=O)O)cc(C(=O)O)c2)[nH]c2c(-c3cc(C(=O)O)cc(C(=O)O)c3)cccc12)C(=O)O)(CCC(=O)NC(Cc1c(-c2cc(C(=O)O)cc(C(=O)O)c2)[nH]c2c(-c3cc(C(=O)O)cc(C(=O)O)c3)cccc12)C(=O)O)[N+](=O)[O-])NC(Cc1c(-c2cc(C(=O)O)cc(C(=O)O)c2)[nH]c2c(-c3cc(C(=O)O)cc(C(=O)O)c3)cccc12)C(=O)O (configuration not stated) , state its recorded CC50 at 120 h.
Key: > 100 µM
